All values here come from the supplement of paper PMC10567573.

B1: SPOPL (parent)
chain: YTGRAPNLDKMADNLLAAADKYAL

# Variants of: B1
# experimentalProtocol: protein stability index of a GFP-peptide fusion (GPS, HEK-293T) (PSI 1-6); higher = more stable;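 note: lentivirally expressed fusions sorted by FACS into six bins by GFP to DsRed ratio, PSI derived from sequencing read proportions per bin multiplied by bin number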
# testParameters: c terminus: a fixed tail appended
Rule: protein stability index under 2 gives No, otherwise Yes.

Here are 2 variants together with their reported answers.
1. P6M
Yes
2. D20M
Yes

# check: protein stability index of L24T is greater than or equal to 2 Yes

# check: protein stability index of A12Y is greater than or equal to 2 No

# check: protein stability index of P6R is greater than or equal to 2 Yes
